Biological target: TatD960 (Trueperella pyogenes)
Construct: His-TatD 960 recombinant protein expressed in E. coli BL21 (DE3)
Experiment: SPR (Biacore T200, NTA chip, […] binding model); DNase gel assay with Mg2+ also shows inhibition
propertyMeasured: Kd (µM)
Write the value in µM as a bare number.

Tell me the measured Kd of O=c1cc(-c2ccc(O)c(O)c2)oc2cc(O)cc(O)c12 [luteolin, 3′,4′,5,7-tetrahydroxyflavone] , please.
6.27

====

Target: TatD825 (Trueperella pyogenes, UniProt A0ABV3NC31)
Construct: His-TatD 825 recombinant protein expressed in E. coli BL21 (DE3)
Test: SPR (Biacore T200, NTA chip, […] binding model); DNase gel assay with Mg2+ also shows inhibition
propertyMeasured: pKd
Just the number, please; pKd means minus log10 of the concentration in mol/L.

Tell me the measured pKd of O=c1cc(-c2ccc(O)c(O)c2)oc2cc(O)cc(O)c12 [luteolin, 3′,4′,5,7-tetrahydroxyflavone] , please.
5.25
